# kcat annotations
molecular target: TEM-1 (Escherichia coli, UniProt P62593); construct: made in house; host or cells: E. coli (DH5 and BL21(DE3) named; pET-28a); test: Steady-state kinetics of antibiotic hydrolysis with inhibitor; assay type: biochemical; settings: meropenem, inhibitor concentration as per IC50
Sequence (P62593 24-286 limits assumed): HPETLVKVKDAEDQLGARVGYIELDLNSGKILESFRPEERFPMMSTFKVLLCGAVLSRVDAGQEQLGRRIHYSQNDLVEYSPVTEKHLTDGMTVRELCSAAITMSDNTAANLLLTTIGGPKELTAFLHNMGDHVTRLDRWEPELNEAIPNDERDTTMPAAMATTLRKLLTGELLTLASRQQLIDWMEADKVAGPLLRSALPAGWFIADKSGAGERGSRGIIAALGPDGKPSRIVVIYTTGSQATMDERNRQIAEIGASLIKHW
Give the number; S^−1 is assumed, so skip it.

Illustrative cases are given below, each with its answer.
[
  {
    "Compound": "O=C(c1ccccc1)C1CCN(C(=O)CN2C(=O)c3ccccc3C2=O)CC1",
    "Quantity measured": "kcat",
    "Readout value": 43.13
  },
  {
    "Compound": "NC(=O)[C@@H]1CC[C@@H]2CN1C(=O)N2OS(=O)(=O)O [Avibactam, reference compound]",
    "Quantity measured": "kcat",
    "Readout value": 5.916
  },
  {
    "Compound": "O=C(O)c1ccccc1C(=O)N1CCN(c2nc(-c3ccccc3)ns2)CC1",
    "Quantity measured": "kcat",
    "Readout value": 1.563
  }
]

Q: Query (compound): `O=C(CN1C(=O)c2ccccc2S1(=O)=O)c1ccc(O)c(O)c1` ; field requested: kcat
Result: 0.6169

The values you see were collected from paper PMC9603770.
